Test system: CUTO14 (EGFR A767dupASV) cells
Assay explanation: Cell viability (MTS, 72 hours) of patient derived cell line CUTO14
Format: cell-based, human
Condition context: Homo sapiens, CUTO14, 72 hours
Readout name: IC50 (nM)
Use nM as the unit, but write only the number.

Look up IC50 of C=CC(=O)N1CCC(Oc2cc3c(Nc4ccc(Cl)c(Cl)c4F)ncnc3cc2OC)CC1 [poziotinib] and report it.
1.84
